B1: SPOPL (parent)
chain: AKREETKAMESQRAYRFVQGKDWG

# Variants of: B1
# PROTOCOL: protein stability index of a GFP-peptide fusion (GPS, HEK-293T) (PSI 1-6); higher = more stable;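 further: lentivirally expressed fusions sorted by FACS into six bins by GFP to DsRed ratio, PSI derived from sequencing read proportions per bin multiplied by bin number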
# APPLIED CONDITIONS: c terminus: a fixed tail appended
REPORTED METRIC: protein stability index
Output spec: single numeric token, no unit.

Input line: Entry under review: R16H . Reported protein stability index?
Output line: 4.49

Input line: Then what about the variant F17R ?
Output line: 4.59

Input line: Then what about the variant E4Q ?
Output line: 2.65

Input line: Then what about the variant W23H ?
Output line: 4.77

Input line: Then what about the variant Q12N ?
Output line: 3.35

Input line: Then what about the variant G24A ?
Output line: 3.44

Input line: Then what about the variant R3H ?
Output line: 2.45

Input line: Then what about the variant E10C ?
Output line: 2.63

Input line: Then what about the variant R16N ?
Output line: 4.2

Input line: Then what about the variant E5C ?
Output line: 2.37

Input line: Then what about the variant G20M ?
Output line: 2.58

Input line: Then what about the variant A1K ?
Output line: 2.83

Input line: Then what about the variant K21R ?
Output line: 2.51

Input line: Then what about the variant R13L ?
Output line: 2.36

Input line: Then what about the variant D22A ?
Output line: 3.14

Input line: Then what about the variant A8T ?
Output line: 3.37

Input line: Then what about the variant Y15R ?
Output line: 4.3

Input line: Then what about the variant T6M ?
Output line: 2.32

Input line: Then what about the variant G20V ?
Output line: 3.19

Input line: Then what about the variant Q19I ?
Output line: 2.6

Input line: Then what about the variant M9W ?
Output line: 2.74

Input line: Then what about the variant W23S ?
Output line: 4.91

Input line: Then what about the variant K2F ?
Output line: 2.81

Input line: Then what about the variant T6H ?
Output line: 3.2

Input line: Then what about the variant T6P ?
Output line: 2.91

Input line: Then what about the variant R13T ?
Output line: 3.42

Input line: Then what about the variant E4F ?
Output line: 2.21

Input line: Then what about the variant M9T ?
Output line: 3.66

Input line: Then what about the variant E10R ?
Output line: 2.39

Input line: Then what about the variant G20K ?
Output line: 3.64

Input line: Then what about the variant W23I ?
Output line: 4.18

Input line: Then what about the variant V18Q ?
Output line: 3.16

Input line: Then what about the variant Y15S ?
Output line: 4.68

Input line: Then what about the variant S11R ?
Output line: 2.96

Input line: Then what about the variant F17Y ?
Output line: 4.18

Input line: Then what about the variant R3L ?
Output line: 3.31

Input line: Then what about the variant Y15W ?
Output line: 3.25

Input line: Then what about the variant V18P ?
Output line: 4.07

Input line: Then what about the variant R16L ?
Output line: 3.6

Input line: Then what about the variant A1D ?
Output line: 3.38

Input line: Then what about the variant E10I ?
Output line: 2.15

Input line: Then what about the variant A14V ?
Output line: 3.42

Input line: Then what about the variant R13Q ?
Output line: 3.67

Input line: Then what about the variant R16F ?
Output line: 2.63

Input line: Then what about the variant F17Q ?
Output line: 4.37

Input line: Then what about the variant R13Y ?
Output line: 3.32

Input line: Then what about the variant K7Q ?
Output line: 3.04

Input line: Then what about the variant E5W ?
Output line: 1.75

Input line: Then what about the variant K2G ?
Output line: 2.6

Input line: Then what about the variant T6G ?
Output line: 2.56

Input line: Then what about the variant V18G ?
Output line: 3.67

Input line: Then what about the variant R16W ?
Output line: 2.94

Input line: Then what about the variant T6V ?
Output line: 2.29

Input line: Then what about the variant K21P ?
Output line: 2.4

Input line: Then what about the variant A14Y ?
Output line: 2.83

Input line: Then what about the variant S11N ?
Output line: 3.47

Input line: Then what about the variant D22Y ?
Output line: 2.76

Input line: Then what about the variant D22T ?
Output line: 3.86

Input line: Then what about the variant Q19S ?
Output line: 2.44
